# measuredOn: bovine intestinal alkaline phosphatase (Bos taurus (Bovine))
# Sequence (P19111 20-506): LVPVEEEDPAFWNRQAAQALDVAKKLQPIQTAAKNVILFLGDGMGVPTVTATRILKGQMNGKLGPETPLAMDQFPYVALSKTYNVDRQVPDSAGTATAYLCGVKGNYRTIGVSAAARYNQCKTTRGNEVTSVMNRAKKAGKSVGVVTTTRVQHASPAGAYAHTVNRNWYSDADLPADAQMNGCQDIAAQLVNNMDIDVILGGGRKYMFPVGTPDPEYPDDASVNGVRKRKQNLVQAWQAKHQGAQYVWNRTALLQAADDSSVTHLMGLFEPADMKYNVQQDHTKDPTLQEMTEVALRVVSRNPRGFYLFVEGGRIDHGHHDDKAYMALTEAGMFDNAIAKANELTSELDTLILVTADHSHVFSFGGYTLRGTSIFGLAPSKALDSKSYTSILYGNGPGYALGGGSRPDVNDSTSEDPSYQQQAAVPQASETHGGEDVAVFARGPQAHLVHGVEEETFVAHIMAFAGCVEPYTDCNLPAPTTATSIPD
# measurementProtocol: BiALP: conversion by bovine intestinal alkaline phosphatase
# Type: in vitro ADME
# conditionSummary: 2 μM substrate, 100 ng/mL iALP, Tris pH 7.8, 37° C., 60 minutes
# maps each entry to its biALP Intermediate A or [Amprenavir] (% of total)

Examples with their reported biALP Intermediate A or [Amprenavir] (% of total) follow.
>>> result("COC(=O)N[C@H](C(=O)N[C@@H](Cc1ccc(C#Cc2cnc(N3CC4CCC(C3)N4C3COC3)nc2)cc1)[C@H](CN(Cc1c(F)cc(-c2ccn(C(F)F)n2)cc1F)NC(=O)[C@@H](NC(=O)OC)C(C)(C)C(F)(F)F)OC(=O)CC(C)(C)c1c(CC(=O)Nc2cc(C(=O)O)cc(C(=O)O)c2)cccc1OP(=O)(O)O)C(C)(C)C(F)(F)F")
"18.4 % of total"
>>> result("COC(=O)N[C@H](C(=O)N[C@@H](Cc1ccc(C#Cc2cnc(N3CC4CCC(C3)N4C3COC3)nc2)cc1)[C@H](CN(Cc1c(F)cc(-c2ccn(C(F)F)n2)cc1F)NC(=O)[C@@H](NC(=O)OC)C(C)(C)C(F)(F)F)OC(=O)CC(C)(C)c1c(CC(=O)Nc2cccc(C(=O)O)c2)cc(C)cc1OP(=O)(O)O)C(C)(C)C(F)(F)F")
"2.2 % of total"
>>> result("COC(=O)N[C@H](C(=O)N[C@@H](Cc1ccc(C#Cc2cnc(N3CC4CCC(C3)N4C3COC3)nc2)cc1)[C@H](CN(Cc1c(F)cc(-c2ccn(C(F)F)n2)cc1F)NC(=O)[C@@H](NC(=O)OC)C(C)(C)C(F)(F)F)OC(=O)CC(C)(C)c1c(CC(=O)N2CC[C@@H]2C(=O)O)cc(C)cc1OP(=O)(O)O)C(C)(C)C(F)(F)F")
"1.8 % of total"
>>> result("COC(=O)N[C@H](C(=O)N[C@@H](Cc1ccc(C#Cc2cnc(N3CC4CCC(C3)N4C3COC3)nc2)cc1)[C@H](CN(Cc1c(F)cc(-c2ccn(C(F)F)n2)cc1F)NC(=O)[C@@H](NC(=O)OC)C(C)(C)C(F)(F)F)OC(=O)CC(C)(C)c1c(CC(=O)N2CC(C(=O)O)CC(C(=O)O)C2)cc(C)cc1OP(=O)(O)O)C(C)(C)C(F)(F)F (stereo partly drawn)")
"9.1 % of total"
>>> result("COC(=O)N[C@H](C(=O)N[C@@H](Cc1ccc(C#Cc2cnc(N3CC4CCC(C3)N4C3COC3)nc2)cc1)[C@H](CN(Cc1c(F)cc(-c2ccn(C(F)F)n2)cc1F)NC(=O)[C@@H](NC(=O)OC)C(C)(C)C(F)(F)F)OC(=O)CC(C)(C)c1c(CC(=O)Nc2ccccn2)cc(C)cc1OP(=O)(O)O)C(C)(C)C(F)(F)F")
"0.1 % of total"

Moving on to another molecule below.
-- ask State the recorded biALP Intermediate A or [Amprenavir] (% of total) for this entry: COC(=O)N[C@H](C(=O)N[C@@H](Cc1ccc(C#Cc2cnc(N3CC4CCC(C3)N4C3COC3)nc2)cc1)[C@H](CN(Cc1c(F)cc(-c2ccn(C(F)F)n2)cc1F)NC(=O)[C@@H](NC(=O)OC)C(C)(C)C(F)(F)F)OC(=O)CC(C)(C)c1c(CC(=O)NCC(=O)O)cccc1OP(=O)(O)O)C(C)(C)C(F)(F)F
-- reply 9.4 % of total

// provenance: patent US20250051375A1
